assay_notes: qHTS assay to identify small molecule antagonists of the estrogen related receptor signaling pathway with the pleiotropic PPARgamma coactivator (PGC) from Tox21 10K library (AID 1224841); also: actives are mostly falling curves and most rising ones were filed inactive; nearly all actives have a fitted effect of over 50% in size; also: potency is read from the fitted curve at half-maximal effect
details: PGC/ERR reporter cell line, ONE-Glo luciferase, 18 h; series mostly up to 92.4 µM
Inconclusive results are not listed. Calls of active or inactive are those of the source. No rule for the calls is given here.
readout: Potency

CCN(CC)c1ccc2c(-c3ccc(S(=O)(=O)O)cc3S(=O)(=O)[O-])c3ccc(=[N+](CC)CC)cc-3oc2c1    28.2 µM (active)
O=C(O)c1cccc(C(F)(F)F)c1    inactive
O=C1CCCCCCCCCCCCCCCO1    inactive
Cc1ccc(C(=O)O)cc1    inactive

// for each compound in input: emit Potency
1. C=CC(C)(CCC=C(C)C)OC=O (stereo not given)
2. Cc1nc(-c2ccc(Cl)cc2)oc1COC(C)(C)C(=O)O
3. Cc1ccc(C)cc1
4. CN1CCC[C@@H]1CCO[C@](C)(c1ccccc1)c1ccc(Cl)cc1

Given back:
inactive
inactive
inactive
inactive

// for each compound in input: emit Potency
1. S=c1nccc[nH]1
2. Oc1c(I)cc(Cl)c2cccnc12
3. Cc1ccc(-c2ccccc2)cc1
4. COC(=O)c1ccccc1OC

Given back:
1. inactive
2. inactive
3. inactive
4. inactive

// for each compound in input: emit Potency
1. CCN(CCN)c1cccc(C)c1
2. CCCc1ccc(OCC(=O)N2CCN(C(=O)COc3ccc(CCC)cc3OC)CC2)c(OC)c1

Given back:
["inactive", "16.8 µM (active)"]

Asked: Using the record for COC(=O)C1=C(C)NC(C)=C(C(=O)OCCN2CCN(C(c3ccccc3)c3ccccc3)CC2)C1c1cccc([N+](=O)[O-])c1 (stereo not given) , report its Potency.
Given back: 9.44 µM (active)

----------
system_name: Estrogen receptor (Homo sapiens)
assay_notes: qHTS assay to identify small molecule agonists of the estrogen receptor alpha (ER-alpha) signaling pathway (AID 743075);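 also: HEK293 GripTite cells with ER-alpha and UAS-driven beta-lactamase reporter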
details: HEK293 ER-alpha-UAS-bla, beta-lactamase FRET ratio, 18 h; series mostly up to 70.1 µM
Calls of active or inactive are those of the source. Calls follow the shape of the full dose curve.
Your response should consist of one outcome taken from active, inactive

Check out these entries, answers already filled in.
COc1ccc(-c2coc3cc(O)ccc3c2=O)cc1    active
O=C(O)[C@H](O)[C@@H](O)[C@H](O[C@@H]1O[C@H](CO)[C@H](O)[C@H](O)[C@H]1O)[C@H](O)CO    inactive

Now consider the entry below.
Asked: Kindly provide the recorded test outcome for the following molecule: Cl[Si](Cl)(c1ccccc1)c1ccccc1
Given back: inactive

----------
assay_notes: qHTS assay to identify aromatase inhibitors - cell viability counter screen (AID 743084);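 also: cells stimulated with testosterone during compound exposure; nearly all actives have a fitted effect of over 55% in size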
details: MCF-7 aro ERE viability, CellTiter-Fluor, 24 h; series mostly up to 70.3 µM
Results filed as inconclusive are left out. Active and inactive are the calls of the source. Calls follow the shape of the dose curve; as a rule, active = well fitted cell-killing curve with a large enough effect in the repeat runs; inconclusive = weak or mixed curves, or effect the other way; inactive = no such curve, though single readings can be large or run the other way.
Your response should consist of one outcome taken from active, inactive

Check out these entries, answers already filled in.
Nc1nc(N)nc(-c2cc(Cl)ccc2Cl)n1    inactive
CCCCCCCCCCCCOCCOCCOCCOCCOCCOCCOCCOCCOCCO    inactive
Cc1cccc(C(=O)O)c1O    inactive
O=C1C(c2[nH]c3ccc(S(=O)(=O)O)cc3c2O)=Nc2ccc(S(=O)(=O)O)cc21    inactive
CC(=O)Oc1cc2c(s1)CCN(C(C(=O)C1CC1)c1ccccc1F)C2 (stereo not drawn)    inactive
O=C1CCc2ccc(OCCCCN3CCN(c4cccc(Cl)c4Cl)CC3)cc2N1    inactive
Clc1nnc(Cl)c2ccccc12    inactive
CCCCNS(=O)(=O)c1ccc(C)cc1    inactive
Oc1c(I)cc(Cl)c2cccnc12    inactive
Cc1ccc(-c2ccccc2)cc1    inactive

Now consider the entry below.
Asked: Kindly provide the recorded test outcome for the following compound: O=C(O)c1cc(N=Nc2ccc([N+](=O)[O-])cc2)ccc1O
Given back: active

----------
assay_notes: qHTS assay for small molecule agonists of the p53 signaling pathway (AID 651631); also: nearly all actives have a fitted effect of over 15% in size
details: HCT-116 p53RE-bla reporter, beta-lactamase FRET ratio, 16 h; series mostly up to 73.3 µM
Records with an inconclusive call do not appear. Activity calls are given as the source filed them. The call rests on the fitted dose curve.
Your response should consist of one outcome taken from active, inactive

CCC(CC)(CC(=O)Nc1cccc(/C=C/c2nc(C3CCC3)cs2)c1)C(=O)O    inactive
COCCOc1cc2cc(C(=O)NC3CCN(C(C)C)CC3)n(CC(=O)Nc3ccc(Cl)cn3)c2cn1    inactive
ClCCl    inactive
O=C(O)c1cc(N=Nc2ccc([N+](=O)[O-])cc2)ccc1O    inactive
O=C(Oc1ccccc1)Oc1ccccc1    inactive

Now consider the entry below.
Asked: Kindly provide the recorded test outcome for the following compound: COc1cc(/C=C/c2ccccc2)oc(=O)c1
Given back: inactive

----------
assay_notes: qHTS assay for identifying genotoxic compounds that show differential cytotoxicity against isogenic chicken DT40 cell lines with known DNA damage response pathways - wild type cell line (AID 743012); also: nearly all actives have a fitted effect of over 60% in size; also: potency is read from the fitted curve at half-maximal effect
details: DT40 wild type chicken cells viability, CellTiter-Glo, 40 h; series mostly up to 68.4 µM
Results filed as inconclusive are left out. Activity calls are given as the source filed them. The call rests on the fitted dose curve; in most records, active means well fitted cell-killing curve with a large enough effect in the repeat runs; inconclusive means weak or mixed curves, or effect the other way; inactive means no such curve, though single readings can be large or run the other way.
readout: Potency

Check out these entries, answers already filled in.
CCCCC/C=C\C/C=C\CCCCCCCC(=O)O    inactive
CCOC(=O)c1ccc(C2CCC(NC[C@H](O)COc3ccc(O)c(NS(C)(=O)=O)c3)CC2)cc1 (stereo not given in full)    0.356 µM (active)
CC[N+](CC)(CC)CCOC(=O)C(C1CCCC1)C1CCCC1    5.31 µM (active)
COC1=C(OC)C(=O)C(CCCCCCCCCCO)=C(C)C1=O    8.41 µM (active)
CCCCNS(=O)(=O)c1ccc(C)cc1    inactive
CNC(=O)c1ccccc1Sc1ccc2c(/C=C/c3ccccn3)n[nH]c2c1    2.11 µM (active)
CCCCOC(=O)CC    inactive
CC(C)Cn1cnc2c(N)nc3ccccc3c21    inactive
Nc1ccc(Oc2ccc(Cl)cc2)cc1    inactive
Clc1ccnc(Cl)n1    inactive

// for each molecule in input: emit Potency
1. C=C(C)c1cccc(C(=C)C)c1
2. CC1(C)[C@@H](O)CC[C@]2(C)[C@H]3C(=O)C=C4[C@@H]5C[C@@](C)(C(=O)O)CC[C@]5(C)CC[C@@]4(C)[C@]3(C)CC[C@@H]12
3. Cc1nc(-c2ccc(Cl)cc2)oc1COC(C)(C)C(=O)O
4. CC1=CCC(=C(C)C)CC1
5. C=CCCC(=O)/C=C/C1C(C)=CCCC1(C)C (stereo not given)
6. OC[C@@H](O)[C@@H](O)CO

Given back:
["inactive", "inactive", "inactive", "inactive", "inactive", "inactive"]

// for each molecule in input: emit Potency
1. COc1cc2nc(N3CCN(C(=O)c4ccco4)CC3)nc(N)c2cc1OC
2. Cc1cccc2cccnc12
3. O=C1CCc2ccc(OCCCCN3CCN(c4cccc(Cl)c4Cl)CC3)cc2N1
4. c1ccc(C(O[C@@H]2CCCN(CCc3ccc4c(c3)OCO4)C2)c2ccccc2)cc1

Given back:
1. 10.6 µM (active)
2. inactive
3. 5.96 µM (active)
4. 38.6 µM (active)

----------
assay_notes: qHTS assay to identify small molecule agonists of the constitutive androstane receptor (CAR) signaling pathway - cell viability counter screen (AID 1224836); also: nearly all actives have a fitted effect of over 45% in size; also: potency is read from the fitted curve at half-maximal effect
details: HepG2-CYP2B6-hCAR viability, CellTiter-Fluor, 23 h, PK11195 added to every well; series mostly up to 92.4 µM
Results filed as inconclusive are left out. The source made the active and inactive calls. Calls come from the whole dose curve; as a rule, active = well fitted cell-killing curve with a large enough effect in the repeat runs; inconclusive = weak or mixed curves, or effect the other way; inactive = flat fitted curve, though single readings scatter.
readout: Potency

CCCCCCCCCCOC(=O)c1ccccc1C(=O)OCCCCCCCC    inactive
CC(C)(C)c1ccc(C(O)CCCN2CCC(C(O)(c3ccccc3)c3ccccc3)CC2)cc1 (stereo not given)    23.7 µM (active)
O=[N+]([O-])c1cccc(C(F)(F)F)c1    inactive
CCc1ccc(Br)cc1    inactive

Next compound, Potency to be filled in.
Asked: Using the record for Oc1cc(Cl)cc(Cl)c1Cl , report its Potency.
Given back: inactive

----------
system_name: Nuclear receptor ROR-gamma (Homo sapiens) (UniProt P51449)
assay_notes: qHTS assay to identify small molecule antagonists of the retinoid-related orphan receptor gamma (ROR-gamma) signaling pathway (AID 1159521; also: nearly all actives have a fitted effect of over 50% in size)
details: Tet-on RORgamma CHO cells, RORE-luciferase, 16 h; series mostly up to 92.4 µM
Inconclusive results are not listed. The source made the active and inactive calls. Calls follow the shape of the dose curve; as a rule, active = well fitted inhibition curve with a large enough effect in the repeat runs; inconclusive = weak or mixed curves, or effect the other way; inactive = no such curve, though single readings can be large or run the other way.
Your response should consist of one outcome taken from YES = active, NO = inactive

O=C(/C=C/c1ccc(O)c(O)c1)O[C@@H](C(=O)O)[C@@H](OC(=O)/C=C/c1ccc(O)c(O)c1)C(=O)O    NO
O=S(=O)(O)c1ccccc1/C=C/c1ccc(-c2ccc(/C=C/c3ccccc3S(=O)(=O)O)cc2)cc1    NO
O=C1CCc2cc(OCCCCc3nnnn3C3CCCCC3)ccc2N1    NO
CC(=O)OCC=C(C)C    NO

Asked: Kindly provide the recorded test outcome for the following compound: O=[N+]([O-])c1ccc(O)cc1C(F)(F)F
Given back: YES

Asked: Kindly provide the recorded test outcome for the following compound: Cc1ccc(N/N=c2\c(=O)cc/c(=N\Nc3ccc(S(=O)(=O)O)cc3)c2=O)c(C)c1
Given back: NO

Asked: Kindly provide the recorded test outcome for the following compound: OCC(F)(F)F
Given back: NO

Asked: Kindly provide the recorded test outcome for the following compound: CCc1oc2ccccc2c1C(=O)c1cc(I)c(O)c(I)c1
Given back: YES

Asked: Kindly provide the recorded test outcome for the following compound: O=C(Oc1ccccc1)Oc1ccccc1
Given back: NO

Asked: Kindly provide the recorded test outcome for the following compound: O=c1oc2cc(O)ccc2c2oc3cc(O)ccc3c12
Given back: NO

Asked: Kindly provide the recorded test outcome for the following compound: CCCCCCCCCCCCOC(=O)c1ccc(O)cc1
Given back: NO

Asked: Kindly provide the recorded test outcome for the following compound: Cc1nc(-c2ccc(Cl)cc2)oc1COC(C)(C)C(=O)O
Given back: NO

Asked: Kindly provide the recorded test outcome for the following compound: CC[C@H](C)COC(=O)/C=C/c1ccc(N=Cc2ccc(OC)cc2)cc1
Given back: NO

Asked: Kindly provide the recorded test outcome for the following compound: CC1(C)CCC[C@]2(C)[C@H]3CCO[C@]3(C)CC[C@@H]12
Given back: NO
